Reference source: PubChem BioAssay AID1645864

Measurement target: Ubiquitin carboxyl-terminal hydrolase 17-like protein 5 (Homo sapiens)
Assay procedure: ubiquitin-specific protease 17 DUB inhibitors, concentration-effect assay, cell-free, verification of initial screening actives (AID 1645864)
Run parameters: purified USP17, ubiquitin-rhodamine cleavage fluorescence, 3 h
Active and inactive are the calls of the source.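 Rule for the calls: active = maximal inhibition of USP17 at or above 30% in the confirmation dose-response, a value not among the printed readouts; inactive = the rest.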
Outcomes: TRUE for active, FALSE for inactive

compound="O=C1CC(c2ccco2)Cc2[nH]c(=O)c(-c3nc(-c4ccc(Cl)cc4)cs3)cc21 (stereo not given)" answer_label=FALSE
compound=Cc1nc2ccc(NC(=O)COc3ccccc3[N+](=O)[O-])cc2s1 answer_label=TRUE
compound="COc1ncccc1CN1CCn2c(Cn3cncn3)cnc2C1C (stereo not given)" answer_label=FALSE
compound=c1ccc(-c2ccc(NCc3ccc4c(c3)OCO4)nn2)cc1 answer_label=TRUE
compound=Cc1ccc(C)c(Cn2nnc3c(=O)[nH]c(C4CCN(S(=O)(=O)c5ccc(S(=O)(=O)NC6CC6)cc5)CC4)nc32)c1 answer_label=TRUE

###

Measurement target: Ubiquitin carboxyl-terminal hydrolase 17-like protein 5 (Homo sapiens) (UniProt A8MUK1)
Sequence (A8MUK1 whole entry, looked up): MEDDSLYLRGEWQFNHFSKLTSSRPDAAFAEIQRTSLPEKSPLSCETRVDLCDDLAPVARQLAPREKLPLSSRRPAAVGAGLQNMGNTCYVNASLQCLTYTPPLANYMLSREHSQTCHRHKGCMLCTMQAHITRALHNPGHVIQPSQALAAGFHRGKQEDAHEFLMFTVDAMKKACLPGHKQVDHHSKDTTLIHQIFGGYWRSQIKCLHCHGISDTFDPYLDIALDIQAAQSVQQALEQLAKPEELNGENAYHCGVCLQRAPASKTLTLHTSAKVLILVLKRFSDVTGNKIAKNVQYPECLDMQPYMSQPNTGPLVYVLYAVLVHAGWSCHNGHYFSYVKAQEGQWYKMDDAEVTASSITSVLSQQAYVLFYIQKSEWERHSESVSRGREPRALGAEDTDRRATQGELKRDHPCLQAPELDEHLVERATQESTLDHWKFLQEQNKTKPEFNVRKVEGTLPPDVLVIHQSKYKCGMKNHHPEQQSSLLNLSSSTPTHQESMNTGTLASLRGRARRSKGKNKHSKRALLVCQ
Assay procedure: ubiquitin-specific protease 17 DUB inhibitors, concentration-effect assay, cell-free, verification of initial screening actives (AID 1645864)
Run parameters: purified USP17, ubiquitin-rhodamine cleavage fluorescence, 3 h
Calls of active or inactive are those of the source.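 The calls were made as follows: active = maximal inhibition of USP17 at or above 30% in the confirmation dose-response, a value not among the printed readouts; inactive = the rest.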
Outcome codes: yes for active, no for inactive

query_smiles=O=C(COC(=O)c1ccc2ncsc2c1)Nc1ccccc1F answer_label=no
query_smiles=Fc1ccc(CN2CCc3nc4cccnc4cc3C2)cc1 answer_label=no
query_smiles=COc1ccc(NC(=O)c2nc3n(n2)-c2ccccc2S(=O)(=O)N3)cn1 answer_label=no
query_smiles=O=C(COc1cccc(-n2cnnn2)c1)Nc1ccc2c(c1)OCCO2 answer_label=no
query_smiles=O=C(CSc1cn(Cc2ccccc2)c2ccccc12)Nc1ccc2c(c1)OCCO2 answer_label=no
query_smiles=COc1cc(/C=C/C(=O)OCC(=O)Nc2ccc([N+](=O)[O-])cc2OC)ccc1O answer_label=yes

###

Measurement target: UniProt:A8MUK1
Assay procedure: ubiquitin-specific protease 17 DUB inhibitors, concentration-effect assay, cell-free, verification of initial screening actives (AID 1645864)
Run parameters: purified USP17, ubiquitin-rhodamine cleavage fluorescence, 3 h
The source made the active and inactive calls.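 The calls were made as follows: active = maximal inhibition of USP17 at or above 30% in the confirmation dose-response, a value not among the printed readouts; inactive = the rest.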
Labels: active, inactive

compound=NS(=O)(=O)c1ccc(NC(=O)Cn2cnc3cc([N+](=O)[O-])ccc3c2=O)cc1 measurement_target=UniProt:A8MUK1 answer_label=active
compound="C=C1CCC2[C@](C)(CCC[C@]2(C)C(=O)OC)[C@H]1CCc1ccoc1/C=C/C(=O)O (stereo not given in full)" measurement_target=UniProt:A8MUK1 answer_label=active
compound="CC1=C2C(=NCCN1)C(=O)N(c1ccccc1)C2c1cccnc1 (stereo not given)" measurement_target=UniProt:A8MUK1 answer_label=inactive
compound="CC1=C(C(=O)Nc2ccccc2C)C(c2ccc(OCc3ccccc3F)cc2)n2ncnc2N1 (stereo not given)" measurement_target=UniProt:A8MUK1 answer_label=active
compound="CC(c1ccccc1)n1c(-c2ccc(F)cc2)nc2c(c(=O)c3ccccc3n2C)c1=O (stereo not given)" measurement_target=UniProt:A8MUK1 answer_label=active

###

Measurement target: Ubiquitin carboxyl-terminal hydrolase 17-like protein 5 (Homo sapiens)
Assay procedure: ubiquitin-specific protease 17 DUB inhibitors, concentration-effect assay, cell-free, verification of initial screening actives (AID 1645864)
Run parameters: purified USP17, ubiquitin-rhodamine cleavage fluorescence, 3 h
Activity calls are given as the source filed them.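 How the source made its calls: active means maximal inhibition of USP17 at or above 30% in the confirmation dose-response, a value not among the printed readouts; inactive means the rest.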
Outcomes: True = active, False = inactive

compound=CN(C(=O)c1ccncc1)[C@H]1CC[C@@]2(C)C[C@H](c3ccccc3)C[C@](C)(O2)[C@@H]1O answer_label=False
compound=COc1cc(OC)cc(C(=O)Nc2cnc(-c3ccccc3)nc2)c1 answer_label=False
compound="COc1cc2c(oc(=O)c3cc(C)cc(OC)c32)c2c([C@@H]3OC(C)[C@@H](O)[C@@](C)(O)C3O)ccc(O)c12 (some centres undefined)" answer_label=True
compound="O=C(NCc1ccc(F)cc1)C1CCCN(c2cnc3nccnc3c2)C1 (centres undefined)" answer_label=False
compound=Cc1nn(C)c2c1[C@@H](c1ccc(F)c(Br)c1)[C@H](NC(=O)c1ccccc1)C(=O)N2 answer_label=False
compound="CC(C)CCN1C(=O)C2C(C(=O)Nc3ccc(Oc4ccccc4)cc3)C3C=CC2(O3)C1C(=O)NC1CCCCC1 (centres undefined)" answer_label=True
compound=Cc1cc(CSc2ncccc2C(=O)Nc2ccnn2Cc2cccnc2)no1 answer_label=False
compound=O=S(=O)(Cc1nnc(-c2ccccc2C(F)(F)F)o1)c1ccc(Cl)cc1 answer_label=False
compound=COc1ccc(-c2nc(SCC(=O)Nc3ccc(C(C)=O)cc3)n[nH]2)cc1 answer_label=True
